Collected QNB binding Inhibition in vitro (IC50) values appear next to each entry.
Molecular target: muscarinic acetylcholine receptors
Format: binding, rat (male Wistar)
Details: 3H-QNB 1 nM; whole forebrain membranes, male Wistar rats; 37° C., 20 min, pH 7.1; non-specific: atropine 1 μg/ml
Response body: numeric value in µg/mL, unit text excluded.

                                   compound                      measured_attribute  obs_value
0                   CCc1noc(C2=CCCN(C)C2)n1  QNB binding Inhibition in vitro (IC50)        3.5
1                  CCCc1nc(C2=CCCN(C)C2)no1  QNB binding Inhibition in vitro (IC50)        3.2
2                 C1=C(c2nc(C3CC3)no2)CNCC1  QNB binding Inhibition in vitro (IC50)        4.7
3  CCCCc1noc(C2=CCC(C)N(C)C2)n1 (stereo not shown)  QNB binding Inhibition in vitro (IC50)        3.3
4  CCc1noc(C2=CC(C)CNC2)n1 (stereo not shown)  QNB binding Inhibition in vitro (IC50)        7.5

Query: Tell me QNB binding Inhibition in vitro (IC50) reported for `CC(C)c1noc(C2=CCCN(C)C2)n1`
Result: 4.9

Query: Tell me QNB binding Inhibition in vitro (IC50) reported for `CN1CCC=C(c2nc(C3CC3)no2)C1`
Result: 2.0
